Provide the recorded NNMT for the entries that follow.
Biological target: NNMT (hNNMT) (Homo sapiens)
Construct: wild type, N-terminal His6 tag kept (no cleavage described), E. coli, construct 31248 Da
Sequence (P40261 1-264): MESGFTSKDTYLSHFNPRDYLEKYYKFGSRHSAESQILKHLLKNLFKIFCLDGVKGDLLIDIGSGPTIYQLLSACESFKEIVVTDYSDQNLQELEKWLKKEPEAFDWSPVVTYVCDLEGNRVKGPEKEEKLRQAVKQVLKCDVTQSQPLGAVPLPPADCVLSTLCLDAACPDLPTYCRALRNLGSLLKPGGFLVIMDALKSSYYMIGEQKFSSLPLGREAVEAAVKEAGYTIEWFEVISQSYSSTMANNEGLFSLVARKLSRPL
Set-up: Intact protein LC/MS covalent labelling, fragments in pools of five, 200 uM each, 4 °C
Conditions: 24 h, 4 °C, pool of five; 200 µM; covalent
Number, no unit, nothing else.

Task item: Could you share which NNMT value was measured for "C=CC(=O)N1CCC(c2noc(C3CC3)n2)CC1" ?
Reply: 0

Task item: Could you share which NNMT value was measured for "Cl.O=C(CCl)N1CCN(Cc2ccc(Cl)cc2)CC1" ?
Reply: 0.14

Task item: Could you share which NNMT value was measured for C=CC(=O)N1CC2(CCCC2)c2cc3c(cc2C1C)OCCO3 (centres unmarked) ?
Reply: 0.19

Task item: Could you share which NNMT value was measured for "O=C(CCl)NC1c2ccccc2-c2ccccc21" ?
Reply: 0

Task item: Could you share which NNMT value was measured for "CCOC(=O)N1CCN(C(=O)CCl)CC1" ?
Reply: 0

Task item: Could you share which NNMT value was measured for C=CC(=O)N1CCCC1C(=O)Nc1nc2ccccc2s1 (centres unmarked) ?
Reply: 0

Task item: Could you share which NNMT value was measured for "O=C(CCl)Nc1ccccc1F" ?
Reply: 0

Task item: Could you share which NNMT value was measured for "C=CC(=O)N1CCC(C(=O)O)(c2ccccc2)CC1" ?
Reply: 0

Task item: Could you share which NNMT value was measured for "C=CC(=O)N1CCC2(CC1)CCS(=O)(=O)CC2" ?
Reply: 0

Task item: Could you share which NNMT value was measured for "C=CC(=O)NC(=O)Nc1ccccc1" ?
Reply: 0

Task item: Could you share which NNMT value was measured for "O=C(CCl)N1CCN(C(=O)C2CC2)CC1" ?
Reply: 0

Task item: Could you share which NNMT value was measured for "Cl.O=C(CCl)N1CCN(c2ccc(F)cc2)CC1" ?
Reply: 0.2

Task item: Could you share which NNMT value was measured for C=CC(=O)N1CCNC(=O)C1c1cccs1 (centres unmarked) ?
Reply: 0

Task item: Could you share which NNMT value was measured for "CC(=O)N1CCC(NC(=O)CCl)CC1" ?
Reply: 0

Task item: Could you share which NNMT value was measured for "CN(Cc1ccc(Cl)s1)C(=O)CCl" ?
Reply: 0.47

Task item: Could you share which NNMT value was measured for C=CC(=O)N1CCCC(Oc2ncccc2F)C1 (centres unmarked) ?
Reply: 0.13

Task item: Could you share which NNMT value was measured for "O=C(CCl)N1CCN(c2ccccc2Cl)CC1" ?
Reply: 0.15

Task item: Could you share which NNMT value was measured for "O=C(CCl)N1CCOCC1" ?
Reply: 0

Task item: Could you share which NNMT value was measured for "CN(Cc1ccc(Br)cc1)C(=O)CCl" ?
Reply: 0.53

Task item: Could you share which NNMT value was measured for "Cl.O=C(CCl)N1CCN(Cc2ccc(Br)s2)CC1" ?
Reply: 0

Task item: Could you share which NNMT value was measured for "O=C(CCl)Nc1nc(-c2cccs2)cs1" ?
Reply: 0.71

Task item: Could you share which NNMT value was measured for "N#Cc1ccc(CNC(=O)CCl)cc1" ?
Reply: 0.23

Task item: Could you share which NNMT value was measured for C=CC(=O)NC1CCC(c2nc(C)no2)CC1 (centres unmarked) ?
Reply: 0

Task item: Could you share which NNMT value was measured for "O=C(CCl)Nc1cccc(C(F)(F)F)c1" ?
Reply: 0.77

Task item: Could you share which NNMT value was measured for "CC(C)c1ccc(NC(=O)CCl)cc1" ?
Reply: 0.68

Task item: Could you share which NNMT value was measured for C=CC(=O)N1CCC2C(CCCN2Cc2ccccc2)C1 (centres unmarked) ?
Reply: 0

Task item: Could you share which NNMT value was measured for "Cc1ccccc1CNC(=O)CCl" ?
Reply: 0.2

Task item: Could you share which NNMT value was measured for "O=C(CCl)Nc1ccc2[nH]c(=O)[nH]c2c1" ?
Reply: 0

Task item: Could you share which NNMT value was measured for C=CC(=O)N1CCCCC1c1ncon1 (centres unmarked) ?
Reply: 0

Task item: Could you share which NNMT value was measured for "O=C(CCl)Nc1cc2ccccc2cc1C(=O)O" ?
Reply: 0.2

Task item: Could you share which NNMT value was measured for "Cc1ccsc1CNC(=O)CCl" ?
Reply: 0

Task item: Could you share which NNMT value was measured for CC1(C)C2CCC1(C)C(NC(=O)CCl)C2 (centres unmarked) ?
Reply: 0

Values were extracted from paper PMC6556873.
